# test system: human H4 receptor (Homo sapiens, UniProt Q9H3N8)
# Construct: expressed in transfected cells; host or cells: HEKf cells infected with baculovirus
# Sequence (Q9H3N8 whole entry): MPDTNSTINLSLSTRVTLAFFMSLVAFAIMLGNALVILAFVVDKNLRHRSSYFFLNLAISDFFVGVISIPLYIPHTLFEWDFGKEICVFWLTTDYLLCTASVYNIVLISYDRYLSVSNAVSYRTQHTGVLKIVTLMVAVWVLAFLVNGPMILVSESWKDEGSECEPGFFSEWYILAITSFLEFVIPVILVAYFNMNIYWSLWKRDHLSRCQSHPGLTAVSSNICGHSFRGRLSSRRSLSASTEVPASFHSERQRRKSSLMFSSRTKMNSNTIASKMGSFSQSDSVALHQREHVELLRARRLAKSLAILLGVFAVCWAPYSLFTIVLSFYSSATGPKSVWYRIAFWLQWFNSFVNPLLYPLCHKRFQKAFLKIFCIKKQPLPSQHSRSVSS
# method: H4 Antagonist Functional Dynamic Mass Redistribution Assay
# Assay type: cell-based
# stated conditions: HEKf cells expressing human H4 receptor; antagonist mode vs histamine EC80; pKb by Cheng-Prusoff; read-out: Human H4 DMR fpKb (converted)
# Protocol: H4 Antagonist Functional Dynamic Mass Redistribution Assay HEKf cells were infected using baculovirus expressing the human H4 receptor, plated into fibronectin-coated EPIC plates at a density of 10,000 cells/well and incubated overnight at 37° C. […] Following 2 h equilibration at room temperature, 30 nL of H4 ligands prepared in DMSO were stamped by LabCyte ECHO acoustic dispensing into seeded EPIC plates and cellular dynamic mass redistribution was monitored using a Corning EPIC plate reader. […]
Kb overview
readout kind: Kb

>>> value_reported("Nc1nc(-c2cnn(C(F)(F)F)c2)cc(N2CC(N)C2)n1")
"12.6 nM"
>>> value_reported("CNC1CN(c2cc(-c3cn(C)nc3Cl)nc(N)n2)C1")
"1.58 nM"
>>> value_reported("CNC1CN(c2cc(-c3cc(Cl)nn3C)nc(N)n2)C1")
"15.8 nM"
>>> value_reported("CNC1CN(c2cc(-c3cnn(C)c3Br)nc(N)n2)C1")
"1.58 nM"
>>> value_reported("CNC1CN(c2cc(-c3cn(CC(F)(F)F)nc3C)nc(N)n2)C1")
"50.1 nM"

---

# test system: human H4 receptor (Homo sapiens)
# Construct: expressed in transfected cells; host or cells: HEKf cells infected with baculovirus
# method: H4 Antagonist Functional Dynamic Mass Redistribution Assay
# Type: cell-based
# stated conditions: HEKf cells expressing human H4 receptor; antagonist mode vs histamine EC80; pKb by Cheng-Prusoff; read-out: Human H4 DMR fpKb (converted)
Strictly below 8 nM in Kb: class 1. Otherwise: class 0.

>>> class_assignment("CNC1CN(c2cc(-c3c[nH]nc3C(F)(F)F)nc(N)n2)C1")
"class 0"
>>> class_assignment("Cc1cc(C)c2nc(-c3cnc(NCCCC4CCN(C)CC4)nc3C)[nH]c2c1 [Toreforant, reference compound]")
"class 0"
>>> class_assignment("CNC1CN(c2cc(-c3n[nH]c(C(F)(F)F)c3C)nc(N)n2)C1")
"class 1"
>>> class_assignment("CNC1CN(c2cc(-c3cc(C)[nH]n3)nc(N)n2)C1")
"class 1"
>>> class_assignment("CNC1CN(c2cc(-c3cn(C(C)C)nc3C)nc(N)n2)C1")
"class 0"
>>> class_assignment("CN[C@@H]1CCN(c2cc(NCC3CC3)nc(N)n2)C1 [PF-3893787, reference compound]")
"class 1"

---

log10(Kb) overview
# test system: human H4 receptor (Homo sapiens, UniProt Q9H3N8)
# Construct: expressed in transfected cells; host or cells: HEKf cells infected with baculovirus
# method: H4 Antagonist Functional Dynamic Mass Redistribution Assay
# Type: cell-based
# stated conditions: HEKf cells expressing human H4 receptor; antagonist mode vs histamine EC80; pKb by Cheng-Prusoff; read-out: Human H4 DMR fpKb (converted)
readout kind: log10(Kb) (log10 of the value in nM)

>>> value_reported("CNC1CN(c2cc(-c3cc(C)nn3C)nc(N)n2)C1")
2.10
>>> value_reported("CNC1CN(c2cc(-c3cnn(CC(F)F)c3)nc(N)n2)C1")
1.10
>>> value_reported("CN[C@@H]1CCN(c2cc(-c3cnn(C)c3Cl)nc(N)n2)C1")
0.60
>>> value_reported("CNC1CN(c2cc(-c3cnn(C)c3Cl)nc(N)n2)C1")
0.90
>>> value_reported("CCn1cc(-c2cc(N3CC(NC)C3)nc(N)n2)cn1")
0.60
>>> value_reported("CCn1cc(-c2cc(N3CC[C@@H](NC)C3)nc(N)n2)c(C)n1")
2.00
>>> value_reported("CCn1ncc(-c2cc(N3CC(NC)C3)nc(N)n2)c1C")
0.40
>>> value_reported("CNC1CN(c2cc(-c3cnn(CC(F)(F)F)c3)nc(N)n2)C1")
1.20
>>> value_reported("CNC1CN(c2cc(-c3cnn(C(F)F)c3)nc(N)n2)C1")
0.10
>>> value_reported("CNC1CN(c2cc(-c3cc(C(F)(F)F)nn3C)nc(N)n2)C1")
1.20
>>> value_reported("CCn1cc(-c2cc(N3CC(NC)C3)nc(N)n2)c(C)n1")
1.00
>>> value_reported("CNC1CN(c2cc(-c3c[nH]nc3C)nc(N)n2)C1")
0.60
>>> value_reported("CNC1CN(c2cc(-c3cnn(C(F)F)c3C)nc(N)n2)C1")
0.30
>>> value_reported("CCNC1CN(c2cc(-c3cnn(C(F)(F)F)c3)nc(N)n2)C1")
0.90
>>> value_reported("CCc1cc(-c2cc(N3CC(NC)C3)nc(N)n2)n(C)n1")
2.00
>>> value_reported("CNC1CN(c2cc(-c3[nH]nc(Cl)c3Cl)nc(N)n2)C1")
0.80
>>> value_reported("CNC1CN(c2cc(-c3cnn(CC(F)(F)F)c3C)nc(N)n2)C1")
0.90
>>> value_reported("CNC1CN(c2cc(-c3cnn(CCF)c3)nc(N)n2)C1")
0.70
>>> value_reported("CNC1CN(c2cc(-c3cn(C(F)F)nc3C)nc(N)n2)C1")
0.40
>>> value_reported("CNC1CN(c2cc(-c3cn[nH]c3)nc(N)n2)C1")
0.70

src = patent US20230167094A1
